Tested on: Zika virus NS2B-NS3 protease (linked)
method: 384 well plate NINDS AMC confirmatory qHTS for Zika virus inhibitors (AID 1347163); further: nearly all actives have a fitted effect of over 50% in size
measurement_conditions: Recombinant NS2B-NS3 protease, Ac-VKTGKR-AMC fluorescence; series mostly up to 1 mM
Inconclusive results are not listed. Calls of active or inactive are those of the source. The call rests on the fitted dose curve; in most records, active means well fitted inhibition curve with a large enough effect; inconclusive means small, poorly fitted or top-dose-only effect; inactive means no such curve, though single readings can be large or run the other way.
Outcomes: active, inactive

INSERT INTO assay_data (chemical_string, assigned_label) VALUES
  ('CC(C)c1cc(C(C)C)c(CC(=O)NS(=O)(=O)Oc2c(C(C)C)cccc2C(C)C)c(C(C)C)c1', 'active'),
  ('O=c1c(O)c(-c2ccc(O)c(O)c2)oc2cc(O)ccc12', 'inactive'),
  ('Cc1ccc(-n2[nH]c(C)c(N=Nc3cccc(-c4cccc(C(=O)O)c4)c3O)c2=O)cc1C', 'active'),
  ('COc1ccc(S(=O)(=O)Nc2cc(-c3c(O)ccc4ccccc34)c(O)c3ccccc23)cc1', 'active');

* * *

method: Quantitative High-Throughput drug screen in 47 multiple myeloma cell lines against the NCATS MIPE library collection: KMS12BM_JCRB cell viability assay (AID 1918971); further: nearly all actives have a fitted effect of over 35% in size
measurement_conditions: KMS12BM myeloma viability, CellTiter-Glo ATP, 48 h; series mostly up to 45.8 µM
Text: PI: Beverly A. Mock Ph.D. Laboratory of Cancer Biology and Genetics, Center for Cancer Research, National Cancer Institute, National Institute of Health, Bethesda, Maryland […] 5; Detector; 425V; Luminescence; Viewlux PerkinElmer. […] 1. […] Briefly, the corresponding myeloma cell lines were screened in 1,536-well plates with 500 cells, 5-uL per well for inhibition of cell viability (assessed by measuring ATP levels with CellTiterGlo). […]
Results filed as inconclusive are left out. Active and inactive are the calls of the source. Calls follow the shape of the dose curve; as a rule, active = well fitted cell-killing curve with a large enough effect; inconclusive = small, poorly fitted or top-dose-only effect, or effect the other way; inactive = no such curve, though single readings can be large or run the other way.
Classes used: active, inactive

INSERT INTO assay_data (compound, assigned_label) VALUES
  ('Cn1cc(-c2cnn3c(N)c(Br)c([C@H]4CCCNC4)nc23)cn1', 'active'),
  ('Cc1cnc(Nc2ccc(N3CCN(C)CC3)cc2)nc1Nc1cccc(S(=O)(=O)NC(C)(C)C)c1', 'active'),
  ('C[C@@H]1C(=O)O[C@H]2CC34[C@H]5C[C@@H](C(C)(C)C)C36[C@H](OC(=O)[C@@H]6O)O[C@@]4(C(=O)O5)[C@]21O (stereo partly drawn)', 'inactive'),
  ('COc1ccc(C=Cc2cc(OC)c(OC)c(OC)c2)cc1NC(=O)[C@H](N)CO', 'active'),
  ('CCOC(=O)C1=C(C)NC(=S)NC1c1cccc(O)c1 (stereo not drawn)', 'active'),
  ('CC(=O)O[C@@]12CO[C@H]1C[C@H](O)[C@@]1(C)C(=O)[C@H](O)C3=C(C)[C@@H](OC(=O)C(O)[C@@H](NC(=O)OC(C)(C)C)c4ccccc4)C[C@@](O)([C@@H](OC(=O)c4ccccc4)[C@@H]21)C3(C)C (stereo partly drawn)', 'inactive'),
  ('CC(C)OC(=O)[C@H](C)N[P@](=O)(OC[C@H]1O[C@@H](n2ccc(=O)[nH]c2=O)[C@](C)(F)[C@H]1O)Oc1ccccc1', 'active'),
  ('CC(Cc1ccc(O)c(O)c1)(NN)C(=O)O (stereo not drawn)', 'active');

* * *

method: Quantitative High-Throughput drug screen in 47 multiple myeloma cell lines against the NCATS MIPE library collection: KMS12PE_JCRB cell viability assay (AID 1918972); further: nearly all actives have a fitted effect of over 30% in size
measurement_conditions: KMS12PE myeloma viability, CellTiter-Glo ATP, 48 h; series mostly up to 45.8 µM
Results filed as inconclusive are left out. Active and inactive are the calls of the source. The call rests on the fitted dose curve; in most records, active means well fitted cell-killing curve with a large enough effect; inconclusive means small, poorly fitted or top-dose-only effect, or effect the other way; inactive means no such curve, though single readings can be large or run the other way.
Outcome codes: active, inactive

INSERT INTO measurements (molecule, assigned_label) VALUES
  ('CCN(CC)CCCCNc1ncc2c(n1)N(C)C(=O)N(c1c(Cl)c(OC)cc(OC)c1Cl)C2', 'inactive'),
  ('N#CC(=C(O)c1ccc(Cl)cc1Cl)c1nc2cc(Cl)ccc2c(=O)[nH]1', 'inactive'),
  ('C#Cc1cccc(Nc2ncnc3cc(OCCOC)c(OCCO)cc23)c1', 'active'),
  ('c1cc(N[C@@H]2CCNC2)nc(-c2cnc3ccc(-c4cn[nH]c4)cn23)c1', 'active'),
  ('CN[C@H]1[C@@H](O)[C@@H]2O[C@@H]3O[C@H](C)CC(=O)[C@]3(O)O[C@@H]2[C@@H](NC)[C@H]1O', 'active'),
  ('C[C@H](NC(=O)Cc1cc(F)cc(F)c1)C(=O)N[C@H](C(=O)OC(C)(C)C)c1ccccc1', 'inactive'),
  ('CCN1CCN(C(=O)N[C@H](C(=O)N[C@@H]2C(=O)N3C(C(=O)O)=C(CSc4nnnn4C)CS[C@@H]23)c2ccc(O)cc2)C(=O)C1=O', 'inactive'),
  ('NC1=N[C@H]2[C@H](CS[C@H]2CCCCC(=O)O)N1', 'inactive'),
  ('Cc1cc(-c2nnc3n2CCCCC3)c(C)n1-c1ccccc1', 'active'),
  ('CN[C@H](CC(C)C)C(=O)N[C@H]1C(=O)N[C@@H](CC(N)=O)C(=O)N[C@@H]2C(=O)N[C@H]3C(=O)N[C@H](C(=O)N[C@H](C(=O)O)c4cc(O)cc(O)c4-c4cc3ccc4O)[C@H](O)c3ccc(c(Cl)c3)Oc3cc2cc(c3O[C@@H]2O[C@H](CO)[C@@H](O)[C@H](O)[C@@H]2O[C@H]2C[C@](C)(N)[C@H](O)[C@H](C)O2)Oc2ccc(cc2Cl)[C@H]1O', 'inactive'),
  ('C=CC(=O)Nc1cc(NC(=O)c2ccc(C)c(NC(=O)c3ccno3)c2)cc(C(F)(F)F)c1', 'active'),
  ('CCOC(=O)C=C[C@H](C[C@@H]1CCNC1=O)NC(=O)[C@@H](CC(=O)[C@@H](NC(=O)c1cc(C)on1)C(C)C)Cc1ccc(F)cc1', 'inactive'),
  ('O=C(c1ccc(F)cc1)N1CCC[C@H](c2nc(-c3ccc(F)cc3)no2)C1', 'inactive'),
  ('CC(=O)O[C@H]1C[C@@H]2CC[C@H]3[C@H]4C[C@H]([N+]5(C)CCCCC5)[C@@H](OC(C)=O)[C@@]4(C)CC[C@@H]3[C@@]2(C)C[C@H]1N1CCCCC1', 'inactive'),
  ('C[C@@H]1[C@H](C)CC[C@]2(C(=O)O)CC[C@]3(C)C(=CC[C@@H]4[C@@]5(C)C[C@@H](O)[C@H](O)[C@@](C)(CO)[C@H]5CC[C@]43C)[C@@H]12', 'inactive'),
  ('CC(C)N(CC[C@H](c1ccccc1)c1cc(CO)ccc1O)C(C)C', 'inactive'),
  ('NC(=NCCCCCCN=C(N)N=C(N)Nc1ccc(Cl)cc1)N=C(N)Nc1ccc(Cl)cc1', 'active'),
  ('N#CNC(=NCCCCCCOc1ccc(Cl)cc1)Nc1ccncc1', 'active'),
  ('CC(Cc1ccc(O)c(O)c1)(NN)C(=O)O (stereo not drawn)', 'inactive'),
  ('N#Cc1c(C2CCNCC2)cc(-c2c(O)cccc2OCC2CC2)nc1N', 'active'),
  ('O=C(Nc1nnc(-c2ccco2)o1)c1cc(-c2ccccc2)nc2ccccc12', 'active'),
  ('O=C(Nc1ccc(Oc2ccnc3[nH]ccc23)c(F)c1)c1cccn(-c2ccc(F)cc2)c1=O', 'inactive'),
  ('COc1ccc(Nc2cc(-c3cnc(N)nc3)nc(N3CCOCC3)n2)cn1', 'active'),
  ('CN(CC(=O)N(Cc1ccc(C2CCCCC2)cc1)c1ccc(C(=O)O)c(O)c1)S(=O)(=O)c1c(F)c(F)c(F)c(F)c1F', 'active'),
  ('O=C(O)CCCCC(CCSCc1ccccc1)SCc1ccccc1 (stereo not drawn)', 'active'),
  ('COc1cc2ncnc(Nc3cccc(Br)c3)c2cc1OC', 'active'),
  ('C[N+](C)([O-])CCNc1ccc(NCC[N+](C)(C)[O-])c2c1C(=O)c1c(O)ccc(O)c1C2=O', 'inactive'),
  ('COC(=O)[C@H](CCCN=C(N)N)NS(=O)(=O)c1ccc(C)cc1', 'inactive'),
  ('COc1cccc2c1C(=O)c1c(O)c3c(c(O)c1C2=O)C[C@@](O)(C(=O)CO)C[C@H]3O[C@H]1C[C@H](N)[C@H](O)[C@H](C)O1', 'active'),
  ('C=C(C)[C@@H]1CC[C@]2(C(=O)O)CC[C@]3(C)[C@H](CC[C@@H]4[C@@]5(C)CC[C@H](O)C(C)(C)[C@@H]5CC[C@]43C)[C@@H]12', 'active'),
  ('C=CC(=O)Nc1cccc(Nc2nc(NC3CCC(N(C)C)CC3)nc3c2ncn3C(C)C)c1 (stereo not drawn)', 'active'),
  ('CC(=O)NCC(=O)N1[C@H]2CC[C@H]1c1cc(Nc3ncc(C(F)(F)F)c(NC4CCC4)n3)ccc12', 'active'),
  ('CC(=CC(=O)Nc1ccccc1C(=O)O)c1ccc2ccccc2c1', 'active');
